Collected EC50 values appear next to each entry.
target: F508delCFTR (Homo sapiens, UniProt P13569, DEL508-508); assay: Cell Surface Expression-Horse Radish Peroxidase (CSE-HRP) assay; settings: CFBE41o-F508delCFTR-HRP cells; F508delCFTR cell surface expression, luminescence; 18-24 hours at 33° C.; highest concentration 20 μM
Sequence (P13569 with tags, fused parts or gaps DEL508-508): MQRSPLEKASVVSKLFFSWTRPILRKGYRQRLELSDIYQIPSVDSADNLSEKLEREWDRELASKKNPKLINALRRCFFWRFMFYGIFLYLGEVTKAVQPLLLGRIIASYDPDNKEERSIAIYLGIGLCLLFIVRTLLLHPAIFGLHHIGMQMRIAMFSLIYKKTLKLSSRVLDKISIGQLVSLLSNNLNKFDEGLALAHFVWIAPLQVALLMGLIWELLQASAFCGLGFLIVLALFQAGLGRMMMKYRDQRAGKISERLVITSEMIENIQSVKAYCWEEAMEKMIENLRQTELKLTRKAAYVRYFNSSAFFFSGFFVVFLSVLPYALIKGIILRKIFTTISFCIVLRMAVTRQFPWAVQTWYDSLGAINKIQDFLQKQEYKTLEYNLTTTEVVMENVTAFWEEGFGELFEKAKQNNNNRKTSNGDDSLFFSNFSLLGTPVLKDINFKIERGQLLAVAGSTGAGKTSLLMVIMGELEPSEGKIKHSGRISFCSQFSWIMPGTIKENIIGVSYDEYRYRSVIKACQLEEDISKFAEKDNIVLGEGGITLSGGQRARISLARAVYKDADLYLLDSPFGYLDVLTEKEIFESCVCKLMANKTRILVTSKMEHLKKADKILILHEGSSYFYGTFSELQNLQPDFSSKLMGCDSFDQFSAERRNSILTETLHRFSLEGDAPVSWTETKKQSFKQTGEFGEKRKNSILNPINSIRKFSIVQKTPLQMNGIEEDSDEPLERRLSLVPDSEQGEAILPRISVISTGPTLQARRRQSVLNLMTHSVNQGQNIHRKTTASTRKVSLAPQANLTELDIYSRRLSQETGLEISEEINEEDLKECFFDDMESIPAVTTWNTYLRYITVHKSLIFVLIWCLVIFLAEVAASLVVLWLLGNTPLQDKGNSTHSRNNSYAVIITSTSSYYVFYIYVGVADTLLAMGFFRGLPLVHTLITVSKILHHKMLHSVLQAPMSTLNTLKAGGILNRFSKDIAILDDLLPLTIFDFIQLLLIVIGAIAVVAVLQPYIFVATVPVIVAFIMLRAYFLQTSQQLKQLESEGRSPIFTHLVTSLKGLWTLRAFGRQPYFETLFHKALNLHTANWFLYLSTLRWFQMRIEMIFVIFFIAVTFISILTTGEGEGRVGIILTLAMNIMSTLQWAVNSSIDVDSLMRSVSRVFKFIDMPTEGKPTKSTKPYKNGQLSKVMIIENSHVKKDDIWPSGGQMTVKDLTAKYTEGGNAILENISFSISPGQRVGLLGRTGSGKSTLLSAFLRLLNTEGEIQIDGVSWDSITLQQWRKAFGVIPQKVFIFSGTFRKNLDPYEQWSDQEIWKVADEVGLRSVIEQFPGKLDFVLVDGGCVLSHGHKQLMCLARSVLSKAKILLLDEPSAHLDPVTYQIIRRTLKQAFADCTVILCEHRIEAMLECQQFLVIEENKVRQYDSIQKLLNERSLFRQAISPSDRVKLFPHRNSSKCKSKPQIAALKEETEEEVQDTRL
Report the figure in nM without appending any unit label.

compound: COc1ccc2c(c1)O[C@@H](c1ccc(C(=O)O)cc1)C[C@H]2NC(=O)C1(c2ccc(OC(F)(F)F)cc2)CC1
EC50, nM: 1940
//
compound: COc1ccc(C(C)(C)C(=O)N[C@H]2C[C@H](c3cccc(C(=O)O)c3)Oc3cc(OC)ccc32)cc1
EC50, nM: 1160
//
compound: COc1ccc2c(c1)O[C@@H](c1ccc(C(=O)O)cc1)C[C@H]2NC(=O)C1(c2ccc(Cl)cc2)CC1
EC50, nM: 170
//
compound: COc1ccc2c(c1)O[C@@H](c1ccc(C(=O)O)cc1)C[C@H]2NC(=O)C(C)(C)c1ccc(Cl)cc1
EC50, nM: 310
//
compound: COC(=O)c1cccc([C@H]2C[C@@H](NC(=O)[C@@]3(C)CCc4cc(OC)ccc43)c3ccccc3O2)c1
EC50, nM: 960
//
compound: COc1ccc2c(c1)O[C@@H](c1ccc(C(=O)O)cc1)C[C@H]2NC(=O)C(C)(C)c1ccc(F)cc1
EC50, nM: 840
//
compound: COc1ccc2c(c1)O[C@@H](c1ccc(C(=O)O)cc1)C[C@H]2NC(=O)C1(c2ccccc2OC)CC1
EC50, nM: 4010
//
compound: COc1ccc2c(c1)O[C@@H](c1ccc(C(=O)O)cc1)C[C@H]2NC(=O)C1(c2ccc(F)cc2)CC1
EC50, nM: 560
//
compound: COc1ccc(C(C)(C)C(=O)NC2CC(c3ccc(OC)c(OC)c3)Oc3cc(OC)ccc32)cc1 (stereo not shown)
EC50, nM: 230
//
compound: CC(C)(C(=O)N[C@@H]1C[C@H](c2cccc(C(=O)O)c2)Oc2ccccc21)c1ccc(C(F)(F)F)cc1
EC50, nM: 2030

### Prompt Data request, read-out EC50, for COc1ccc(C(C)(C)C(=O)N[C@@H]2C[C@H](c3ccc(C(=O)O)cc3)Oc3cc(OC)ccc32)cc1
### Response 70

### Prompt Similarly, COc1ccc2c(c1)O[C@@H](c1ccc(C(=O)O)cc1)C[C@H]2NC(=O)C1(c2ccccc2Cl)CCC1 ?
### Response 3010

### Prompt Similarly, COc1ccc2c(c1)O[C@@H](c1ccc(C(=O)O)cc1)C[C@H]2NC(=O)C1(c2ccccc2Br)CC1 ?
### Response 750

### Prompt Similarly, COc1ccc2c(c1)O[C@@H](c1ccc(C(=O)O)cc1)C[C@H]2NC(=O)C(C)(C)c1ccc(OC)c(F)c1 ?
### Response 60

### Prompt Similarly, COc1ccc2c(c1)O[C@@H](c1ccc(C(=O)O)cc1)C[C@H]2NC(=O)C1(c2ccccc2)CC1(F)F (mixture of isomers) ?
### Response 1100

### Prompt Similarly, COc1ccc2c(c1)O[C@@H](c1ccc(C(=O)O)cc1)C[C@H]2NC(=O)C1(C)CCc2cc(C)ccc21 (stereo partly shown) ?
### Response 160

### Prompt Similarly, COc1ccc2c(c1)O[C@@H]([C@H]1CC[C@H](C(=O)O)CC1)C[C@H]2NC(=O)C1(c2ccc3c(c2)OC(F)(F)O3)CC1 ?
### Response 310

### Prompt Similarly, COc1ccc(C2(C(=O)N[C@@H]3C[C@H](c4cccc(C(=O)O)c4)Oc4cc(OC)ccc43)CC2)cc1 ?
### Response 100

### Prompt Similarly, COC(=O)c1cccc([C@H]2C[C@@H](NC(=O)[C@@]3(C)CCc4cc(OC)ccc43)c3ccc(OC)cc3O2)c1 ?
### Response 400
